// data source = ChEMBL document CHEMBL5226295

- ASSAYED TARGET: Bromodomain-containing protein 4 (Homo sapiens, UniProt O60885)
- TEST SUMMARY: Inhibition of recombinant human BRD4 BD1 measured after 2 hrs by TR-FRET assay
MEASURED PROPERTY: pIC50
Note on units: pIC50 is unitless, being -log10 of a concentration expressed in mol/L.

# pIC50 (compound: COc1cc(OC)c2c(=O)[nH]c(-c3ccc(OCCOc4ccccc4C(N)=O)cc3)nc2c1 ) is 6.36

---

- ASSAYED TARGET: Bromodomain-containing protein 4 (Homo sapiens, UniProt O60885)
- TEST SUMMARY: Inhibition of poly His-tagged BRD4 BD1 (unknown origin) ([…] residues) by BROMOscan assay
MEASURED PROPERTY: pIC50
Note on units: pIC50 is unitless, being -log10 of a concentration expressed in mol/L.

# value of pIC50, Bromodomain-containing protein 4 (Homo sapiens, UniProt O60885), item COC(=O)c1ccc(N[C@@H]2C[C@H](C)N(C(C)=O)c3ccc(-c4cccc(NC(C)=O)c4)cc32)cc1 = 7.57

---

- ASSAYED TARGET: Bromodomain-containing protein 4 (Homo sapiens, UniProt O60885)
- TEST SUMMARY: Binding affinity to BRD4 BD2 (unknown origin) assessed as dissociation constant by ITC analysis
MEASURED PROPERTY: pKd
Note on units: pKd is unitless, being -log10 of a concentration expressed in mol/L.

# pKd (compound: CC1=C(C)C2C(c3ccc(Cl)cc3)N[C@@](C)(CC(=O)NCCOCCOCCOCC(=O)N[C@H](C(=O)N3C[C@H](O)C[C@H]3C(=O)NCc3ccc(-c4scnc4C)cc3)C(C)(C)C)c3nnc(C)n3C2S1 (stereo partly specified) ) is 6.92

---

- ASSAYED TARGET: Bromodomain-containing protein 4 (Homo sapiens, UniProt O60885)
- TEST SUMMARY: Inhibition of poly His-tagged BRD4 BD2 (unknown origin) (348 to 455 residues) by TR-FRET assay
MEASURED PROPERTY: Kd (nM)
// units = nM; emit number, no label

# Kd (compound: CC(=O)N1c2ccc(-c3cc[nH]n3)cc2[C@H](Nc2ccc(C#N)cc2)C[C@@H]1C ) is 2

---

- ASSAYED TARGET: Bromodomain-containing protein 4 (Homo sapiens)
- TEST SUMMARY: Inhibition of recombinant human BRD4 BD2 measured after 2 hrs by TR-FRET assay
MEASURED PROPERTY: IC50
Reply with the number, then its unit.

# IC50 (molecule: COc1cc(OC)c2c(=O)[nH]c(-c3ccc(OCCOc4ccccc4C(N)=O)cc3)nc2c1 ) is 379 nM

---

- ASSAYED TARGET: Protein cereblon/Bromodomain-containing protein 4 (Homo sapiens, UniProt O60885+Q96SW2)
- Sequence (Q96SW2 whole entry, looked up, other chains not shown): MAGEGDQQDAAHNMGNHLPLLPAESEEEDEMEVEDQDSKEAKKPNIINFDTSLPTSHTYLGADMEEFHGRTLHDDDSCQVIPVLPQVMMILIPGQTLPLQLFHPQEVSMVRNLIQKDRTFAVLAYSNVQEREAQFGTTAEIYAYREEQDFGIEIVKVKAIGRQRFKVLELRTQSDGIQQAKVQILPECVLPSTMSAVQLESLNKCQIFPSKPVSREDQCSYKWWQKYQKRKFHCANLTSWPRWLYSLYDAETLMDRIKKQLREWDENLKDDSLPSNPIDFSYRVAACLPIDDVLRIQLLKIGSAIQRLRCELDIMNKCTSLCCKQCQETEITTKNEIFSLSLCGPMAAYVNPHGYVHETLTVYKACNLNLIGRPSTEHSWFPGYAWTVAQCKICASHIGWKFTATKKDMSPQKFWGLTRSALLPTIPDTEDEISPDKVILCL
- TEST SUMMARY: Protac activity at CRBN/BRD4 in human SUM149PT assessed as induction of BRD4 degradation incubated for 18 hrs by immunoblot analysis
MEASURED PROPERTY: pEC50
Note on units: pEC50 is unitless, being -log10 of a concentration expressed in mol/L.

# value of pEC50, Protein cereblon/Bromodomain-containing protein 4 (Homo sapiens, UniProt O60885+Q96SW2), item Cc1sc2c(c1C)C(c1ccc(Cl)cc1)=N[C@@H](CC(=O)NCCCCNC(=O)COc1cccc3c1C(=O)N(C1CCC(=O)NC1=O)C3O)c1nnc(C)n1-2 (stereo partly specified) = 6.37
